The molecules listed here are annotated with their %-inhibition of NuaK2.
Biological target: panel of more than 300 wild-type and mutant kinases (313 kinase panel) (Homo sapiens)
Sequence (Q9H093 1-628): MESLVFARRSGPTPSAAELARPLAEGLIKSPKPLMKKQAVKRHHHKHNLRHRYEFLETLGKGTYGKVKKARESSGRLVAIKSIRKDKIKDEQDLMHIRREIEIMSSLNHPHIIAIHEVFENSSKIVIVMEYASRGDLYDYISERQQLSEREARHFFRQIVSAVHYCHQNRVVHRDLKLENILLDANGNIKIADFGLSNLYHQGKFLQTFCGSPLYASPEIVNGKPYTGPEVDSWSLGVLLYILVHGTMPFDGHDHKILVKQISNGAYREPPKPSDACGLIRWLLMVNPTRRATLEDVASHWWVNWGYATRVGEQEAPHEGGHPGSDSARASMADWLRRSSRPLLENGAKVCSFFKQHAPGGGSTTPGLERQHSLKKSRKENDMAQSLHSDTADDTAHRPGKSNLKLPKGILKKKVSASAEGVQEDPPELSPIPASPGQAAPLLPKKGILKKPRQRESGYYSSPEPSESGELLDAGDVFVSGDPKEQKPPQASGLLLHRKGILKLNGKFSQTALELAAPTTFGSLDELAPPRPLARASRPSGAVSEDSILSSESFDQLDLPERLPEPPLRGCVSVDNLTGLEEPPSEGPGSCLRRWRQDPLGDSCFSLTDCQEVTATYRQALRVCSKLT
Test: Kinase profiling in a biochemical assay panel (mobility shift assays and ELISA), %-inhibition at 1 μM; selectivity entropy
Details: kinase NuaK2; 1 μM
Your answer is read as %, so omit the unit and give the number.

Check out these entries, answers already filled in.
1. CCCS(=O)(=O)Nc1ccc(F)c(C(=O)c2c[nH]c3ncc(-c4ccc(Cl)cc4)cc23)c1F
4.36
2. Cc1ccc(Nc2nccc(N(C)c3ccc4c(C)n(C)nc4c3)n2)cc1S(N)(=O)=O
2.81
3. CO[C@H]1C[C@@H]2CC[C@@H](C)[C@@](O)(O2)C(=O)C(=O)N2CCCC[C@H]2C(=O)O[C@H]([C@H](C)C[C@@H]2CC[C@@H](OCCO)[C@H](OC)C2)CC(=O)[C@H](C)/C=C(\C)[C@@H](O)[C@@H](OC)C(=O)[C@H](C)C[C@H](C)/C=C/C=C/C=C/1C
-0.726
4. COc1cc(Nc2c(C#N)cnc3cc(OCCCN4CCN(C)CC4)c(OC)cc23)c(Cl)cc1Cl
87

Just so you know, measured %-inhibition of NuaK2 for N#CC[C@H](C1CCCC1)n1cc(-c2ncnc3[nH]ccc23)cn1 came out at 41

Item: CC(=O)Nc1cccc(-n2c(=O)n(C3CC3)c(=O)c3c(Nc4ccc(I)cc4F)n(C)c(=O)c(C)c32)c1 | %-inhibition of NuaK2: 9
